# experimental-details: Selectivity index, ratio of MCC for MDCK cells to EC50 for Influenza A virus (A/Hong Kong/7/1987(H3N2))
# Format: toxicity, cell-based
# settings: dog, read-out: Selectivity Index
parameter-measured: selectivity ratio

| compound | meas-value |
| --- | --- |
| NC12CC3CC(CC(C3)C1)C2 | > 51 |
| CC(N)C12CC3CC(CC(C3)C1)C2 (stereo not drawn) | > 276 |
| NC1(CO)C2CC3CC(C2)CC1C3 (stereo not drawn) | > 314 |

---

# experimental-details: Cytotoxicity against MDCK cells by MTS assay
# Format: cell-based, Canis lupus familiaris
# settings: dog

| compound | MCC |
| --- | --- |
| CN(C)CCCC12CC3CC(CC(C3)C1O)C2 (stereo unspecified) | > 250 µM |
| CN(C)CCC[C@]1(O)CC2CC3CC(C2)C1C3 (stereo partly specified) | > 250 µM |
| NC12CC3CC(CC(C3)C1)C2 | > 100 µM |
| NC1(CO)C2CC3CC(C2)CC1C3 (stereo unspecified) | > 459 µM |
| CN(C)CCCC12CC3CC(CC(C3)C1N)C2 (stereo unspecified) | > 200 µM |
| CC(N)C12CC3CC(CC(C3)C1)C2 (stereo unspecified) | > 100 µM |
